Biological target: Wee1 kinase (Homo sapiens, UniProt P30291)
Sequence (P30291 whole entry): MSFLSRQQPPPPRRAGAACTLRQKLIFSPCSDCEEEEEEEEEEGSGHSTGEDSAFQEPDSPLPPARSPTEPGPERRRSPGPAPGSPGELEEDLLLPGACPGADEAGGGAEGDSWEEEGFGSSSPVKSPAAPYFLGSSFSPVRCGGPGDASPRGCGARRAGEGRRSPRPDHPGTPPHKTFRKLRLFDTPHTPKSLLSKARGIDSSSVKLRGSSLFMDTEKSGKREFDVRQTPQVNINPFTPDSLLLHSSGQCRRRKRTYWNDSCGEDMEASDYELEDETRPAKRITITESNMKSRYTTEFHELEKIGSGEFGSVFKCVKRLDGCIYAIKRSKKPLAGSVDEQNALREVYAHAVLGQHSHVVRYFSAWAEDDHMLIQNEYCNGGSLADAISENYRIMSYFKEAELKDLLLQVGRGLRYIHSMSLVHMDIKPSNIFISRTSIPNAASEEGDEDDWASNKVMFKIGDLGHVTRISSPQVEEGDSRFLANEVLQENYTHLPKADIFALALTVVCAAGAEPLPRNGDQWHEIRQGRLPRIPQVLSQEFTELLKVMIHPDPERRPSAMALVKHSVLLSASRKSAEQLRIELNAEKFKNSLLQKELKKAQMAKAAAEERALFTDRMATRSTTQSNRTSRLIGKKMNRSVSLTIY
Test: Wee1 kinase inhibitory effect (Pharmacological Test 1)
Conditions: purified GST-tagged Wee1 kinase, Poly(Lys, Tyr) substrate, 10 μM ATP, 30° C. for 30 minutes; read-out: Weel Inhibition Activity (IC50)
Description: The following describes exemplary pharmacological tests of a compound of the present invention._Pharmacological Test 1 (Wee1 kinase inhibitory effect) A cDNA of Wee1 kinase with glutathione-S-transferase (GST) fused at the amino terminal thereof was inserted into a baculovirus expression vector to construct a recombinant baculovirus, with which cells of an insect cell line Sf9 were infected to overexpress the target protein. […]
Kindly supply the reported IC50 values for the records listed here.
Your answer should be a plain number; it is taken to be in nM.

Lookup: For the compound shown here, `Cc1cc(Nc2ncc3c(=N)n(-c4c(Cl)cccc4Cl)c(=O)[nH]c3n2)ccc1N1CCN(C)CC1` , give the reported IC50.
Found: 8

Lookup: For the compound shown here, `Cn1c(=O)n(-c2c(Cl)cccc2Cl)c(=N)c2cnc(Nc3ccc(N4CCN(CCO)CC4)cc3)nc21` , give the reported IC50.
Found: 4

Lookup: For the compound shown here, CN1CCC2(CCCN(c3ccc(Nc4ncc5c(=N)n(-c6c(Cl)cccc6Cl)c(=O)[nH]c5n4)cc3)C2)C1 (stereo not shown) , give the reported IC50.
Found: 18

Lookup: For the compound shown here, `CN(C)CC(=O)N1CCN(c2ccc(Nc3ncc4c(=N)n(-c5c(Cl)cccc5Cl)c(=O)n(C)c4n3)cc2)CC1` , give the reported IC50.
Found: 12

Lookup: For the compound shown here, CN1CC2CCN(c3ccc(Nc4ncc5c(=N)n(-c6c(Cl)cccc6Cl)c(=O)[nH]c5n4)cc3)C2C1 (stereo not shown) , give the reported IC50.
Found: 16

Lookup: For the compound shown here, `CN1CCN(c2ccc(Nc3ncc4c(=N)n(-c5c(Cl)cccc5Cl)c(=O)n(C)c4n3)cc2)CC1` , give the reported IC50.
Found: 6

Lookup: For the compound shown here, `CN1CCN(c2ccc(Nc3ncc4c(=N)n(-c5c(Cl)cccc5Cl)c(=O)[nH]c4n3)cc2)CC1` , give the reported IC50.
Found: 17
